Tested on: Influenza B virus
ASSAY_COMMENT: Antiviral activity against Influenza B virus infected in MDCK cells assessed as inhibition of virus-induced cytopathicity
Assay type: functional, organism-based
pEC50: −log10 of the molar value.
For each record, write down the corresponding pEC50.

Which pEC50 is reported for this compound? O=c1[nH]c(=O)n(C2C=CC(O)C2)cc1-c1cncs1 (configuration not stated)
< 4.70

Which pEC50 is reported for this compound? O=c1[nH]c(=O)n(C2C=CC(O)C2)cc1-c1cccs1 (configuration not stated)
< 6.10
